Reference for the values: the Kinase Knowledgebase extract (Sharma et al. 2016)

- SYSTEM_UNDER_TEST: PIK3CA (human)
- METHOD: Assessment of Cell Proliferation of MDA-361 Cells
pIC50: −log10 of the molar value.

SMILES_STR: CC(C)n1nnc2c(N3CCOCC3)nc(-c3ccc(NC(=O)Nc4ccc(CO)cc4)cc3)nc21
pIC50: > 7.52

====

- SYSTEM_UNDER_TEST: EGFR (human) (UniProt P00533)
- Sequence (P00533 whole entry, looked up): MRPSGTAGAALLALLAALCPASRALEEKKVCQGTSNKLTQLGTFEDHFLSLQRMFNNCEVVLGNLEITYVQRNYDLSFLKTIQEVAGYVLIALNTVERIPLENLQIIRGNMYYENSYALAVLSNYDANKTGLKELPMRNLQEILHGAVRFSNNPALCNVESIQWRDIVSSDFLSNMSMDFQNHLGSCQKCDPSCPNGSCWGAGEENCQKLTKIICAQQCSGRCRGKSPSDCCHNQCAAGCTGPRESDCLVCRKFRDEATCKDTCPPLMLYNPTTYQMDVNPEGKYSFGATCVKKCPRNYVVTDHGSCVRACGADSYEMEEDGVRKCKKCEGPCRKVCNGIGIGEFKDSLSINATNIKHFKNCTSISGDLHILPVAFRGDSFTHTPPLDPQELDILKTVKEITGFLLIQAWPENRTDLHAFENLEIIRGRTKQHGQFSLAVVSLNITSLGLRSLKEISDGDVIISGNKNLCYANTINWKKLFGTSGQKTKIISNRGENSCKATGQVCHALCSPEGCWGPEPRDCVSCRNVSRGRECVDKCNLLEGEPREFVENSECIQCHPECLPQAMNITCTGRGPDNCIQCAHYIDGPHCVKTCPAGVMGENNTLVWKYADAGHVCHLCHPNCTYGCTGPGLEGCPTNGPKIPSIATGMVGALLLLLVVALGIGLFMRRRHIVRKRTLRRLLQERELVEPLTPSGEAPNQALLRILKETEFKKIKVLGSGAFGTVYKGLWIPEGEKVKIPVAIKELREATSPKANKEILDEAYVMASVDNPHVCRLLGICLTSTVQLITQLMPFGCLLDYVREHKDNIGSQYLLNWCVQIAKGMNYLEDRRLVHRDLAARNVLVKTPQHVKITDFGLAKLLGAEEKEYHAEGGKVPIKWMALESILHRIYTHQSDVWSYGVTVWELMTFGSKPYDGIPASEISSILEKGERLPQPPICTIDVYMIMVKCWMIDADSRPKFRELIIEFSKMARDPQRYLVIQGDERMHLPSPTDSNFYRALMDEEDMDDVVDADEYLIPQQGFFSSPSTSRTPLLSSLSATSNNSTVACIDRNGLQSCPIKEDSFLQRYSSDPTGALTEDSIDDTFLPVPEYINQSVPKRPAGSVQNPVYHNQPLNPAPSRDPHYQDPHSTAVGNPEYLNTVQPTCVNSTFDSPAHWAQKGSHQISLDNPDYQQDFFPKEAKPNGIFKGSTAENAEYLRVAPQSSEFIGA
- TEST_CONTEXT: kb
pIC50: −log10 of the molar value.
The molecules listed here are annotated with their pIC50.
QUANTITY_NAME: pIC50

SMILES_STR: CNC(=O)C1(N(C)Cc2cc3c(Nc4cccc(Cl)c4F)ncnc3cc2OC)CCN(C)CC1
READOUT_VALUE: 7.44

SMILES_STR: COc1cc2ncnc(Nc3cccc(Cl)c3F)c2cc1CN(C)C1(C(N)=O)CCN(S(C)(=O)=O)CC1
READOUT_VALUE: 7.04

====

- SYSTEM_UNDER_TEST: CDK2 (UniProt P24941)
- METHOD: Enzyme Assay
pIC50: −log10 of the molar value.

COMPOUND: O=C1CN=C2C=NC(Nc3ccc(N4CCNCC4)cc3)=NC2N1C1CCCC1 (stereo unspecified)
pIC50: 6.21

====

The molecules listed here are annotated with their IC50.
- SYSTEM_UNDER_TEST: EGFR (human) (UniProt P00533)
- TEST_CONTEXT: a431

SMILES_STR: C/C(=C/c1cc2c(N)nc(N)nc2o1)c1ccc2ccccc2c1
SYSTEM_UNDER_TEST: EGFR (human) (UniProt P00533)
BOUND_OPERATOR: >
IC50 [µM]: 50
--
SMILES_STR: N.N.[Cl][Pt][Cl]
SYSTEM_UNDER_TEST: EGFR (human) (UniProt P00533)
BOUND_OPERATOR: =
IC50 [µM]: 8.2

====

- SYSTEM_UNDER_TEST: MAPK14 (human)
- METHOD: Inhibition of MAPK14 Kinase Activity

COMPOUND: COc1ccc(Nc2nc(Nc3ccc4ncccc4c3)nc(NC(Cc3c[nH]c4ncccc34)C(N)=O)n2)cc1OC (centres undefined)
BOUND_OPERATOR: >
IC50 (nM): 40000
--
COMPOUND: CC(C)OCc1ccc2c(c1)c1c3c(c4c(c1n2CCCO)Cc1ccccc1-4)C(=O)NC3
BOUND_OPERATOR: >
IC50 (nM): 10000
--
COMPOUND: COc1ccc(Nc2nc(NCCc3ccccc3F)nc(Nc3ccc4ncccc4c3)n2)cc1OC
BOUND_OPERATOR: >
IC50 (nM): 40000
--
COMPOUND: CONC(=O)c1ccc(C)c(Nc2nc(NCc3cccc(C)c3)nc(N[C@H](C)C(C)(C)C)n2)c1
BOUND_OPERATOR: =
IC50 (nM): 15
--
COMPOUND: Cn1cc(-c2cnc3[nH]cc(C(=O)c4c(F)ccc(NS(=O)(=O)c5cccc(OC(F)F)c5)c4F)c3c2)cn1
BOUND_OPERATOR: ≤
IC50 (nM): 10000
--
COMPOUND: Cn1ccc(S(=O)(=O)Nc2ccc(F)c(C(=O)c3c[nH]c4ncc(Cl)cc34)c2F)n1
BOUND_OPERATOR: ≤
IC50 (nM): 10000
--
COMPOUND: Fc1ccc(-c2occc2-c2ccncc2)cc1
BOUND_OPERATOR: =
IC50 (nM): 0.74
--
COMPOUND: CCN1CCC(Oc2ccc3ncn(-c4cc(C(=O)NC5CC5)ccc4C)c(=O)c3c2)CC1
BOUND_OPERATOR: =
IC50 (nM): 66
--
COMPOUND: O=c1ccc2c(-c3ccc(F)cc3F)nc(O)cc2n1-c1c(F)cccc1F
BOUND_OPERATOR: =
IC50 (nM): 1.6
